# Test System: FGFR3 (h) (Homo sapiens)
# Sequence (P22607 23-806): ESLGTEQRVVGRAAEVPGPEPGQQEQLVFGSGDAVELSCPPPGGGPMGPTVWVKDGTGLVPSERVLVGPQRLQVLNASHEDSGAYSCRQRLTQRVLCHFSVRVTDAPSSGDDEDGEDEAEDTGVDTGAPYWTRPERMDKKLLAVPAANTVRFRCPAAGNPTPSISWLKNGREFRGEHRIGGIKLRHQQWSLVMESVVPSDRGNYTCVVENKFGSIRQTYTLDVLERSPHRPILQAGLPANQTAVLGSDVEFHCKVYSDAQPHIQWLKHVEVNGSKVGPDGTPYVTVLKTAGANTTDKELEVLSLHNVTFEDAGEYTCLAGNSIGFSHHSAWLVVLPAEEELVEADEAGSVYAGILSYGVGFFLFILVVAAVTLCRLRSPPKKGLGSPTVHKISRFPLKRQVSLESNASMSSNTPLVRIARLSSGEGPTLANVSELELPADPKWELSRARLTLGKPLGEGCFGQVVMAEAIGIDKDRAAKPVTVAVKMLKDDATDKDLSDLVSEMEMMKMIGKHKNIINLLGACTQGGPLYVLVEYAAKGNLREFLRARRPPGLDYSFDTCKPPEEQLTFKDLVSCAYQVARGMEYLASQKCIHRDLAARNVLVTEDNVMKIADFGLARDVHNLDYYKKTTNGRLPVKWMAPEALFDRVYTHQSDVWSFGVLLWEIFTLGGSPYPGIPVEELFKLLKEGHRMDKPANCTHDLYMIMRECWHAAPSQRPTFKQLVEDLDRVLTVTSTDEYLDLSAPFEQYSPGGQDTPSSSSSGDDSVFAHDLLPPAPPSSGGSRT
# Assay Text: FGFR3 (enzymatic assay), TR-FRET
# Assay type: biochemical
# Experimental Conditions: read-out: FGFR 3 pIC50 (converted)
Recorded Metric: IC50 (nM)

Examples with their reported IC50 follow.
COc1cc(OC)cc(N(CC2CC2)c2ccc3ncc(-c4nccn4C)nc3c2)c1 = 955
COc1cc(OC)cc(N(CC2CO2)c2ccc3ncc(-c4ccc(N)nc4)nc3c2)c1 (stereo not shown) = 21.4

I = COc1cc(OC)cc(N(CCCO)c2ccc3ncc(-c4cccnc4)nc3c2)c1
II = COc1cc(OC)cc(N(CCNC(C)C)c2ccc3ncc(C(=O)N4CCN(C)CC4)nc3c2)c1
**Query** # min-compare on IC50 between I and II Write down the label attached to your selection.
**Result** I
